Collected from the literature: IC50 of various molecules toward UniProtKB O14965.
property_measured: IC50

molecule | test_result
Cc1cc(Nc2nn(C(C)C)c(=O)c3c(N4CCOCC4)cccc23)n[nH]1 | 1 to 100 nM
COc1c(Nc2ncc(C(F)(F)F)c(Nc3cccc4c3C(=O)NC4)n2)ccc(N2CCC(N3CCCC3)CC2)c1F | 11 to 100 nM
CC(O)Cn1cc(Nc2ncc(Cl)c(NC3CC4CN(S(C)(=O)=O)CC4C3)n2)cn1 (stereo not shown) | 0.8 nM
COCCNS(=O)(=O)c1ccc(Nc2nccc(-c3c(C)c4n(c3C)CCNC4=O)n2)cc1 | < 1000 nM
CC(=O)N1CCN(C(=O)CCc2cccc(Nc3nccc(-c4c(C)c5n(c4C)CCNC5=O)n3)c2)CC1 | < 1000 nM
O=C1Nc2ccc(Cl)cc2/C1=C\c1ccc2cn[nH]c2c1 | < 5000 nM
Cc1cc(Nc2cc[nH]n2)nc(C[C@]2(c3n[nH]c(=O)o3)CC[C@H](Oc3cccc(Cl)c3F)CC2)n1 | 0.18 nM
O=C(c1cccc(Cl)c1F)N1CCN(Cc2cccc(Nc3ncc(F)s3)n2)CC1 | 0.81 nM
COC(=O)c1ccc(COc2cccc(Nc3nccc(-c4nccs4)n3)c2)cc1 | > 2000 nM
Cc1cc(Nc2nn(-c3cccc(C(F)(F)F)c3)c(=O)c3ccccc23)n[nH]1 | 1 to 100 nM
Cc1ccc(Nc2nccc(-c3c(C)c4n(c3C)CCNC4=O)n2)cc1S(=O)(=O)N1CCOCC1 | < 1000 nM
N#Cc1cccc(-c2ccnc(Nc3cccc(O)c3)n2)c1 | 940 nM
COc1cc2c(Oc3ccc(CC(=O)Nc4ccccc4)cc3)ccnc2cc1OCC[C@H](N)C(=O)O | 2000 to 5000 nM
Cc1cccc(NC(=O)Nc2ccc(-c3ccc4c(-c5cnn[nH]5)n[nH]c4c3)cc2)c1 | 2490 nM
CC1(C)C(=O)N(CCO[Si](C)(C)C(C)(C)C)c2cc3[nH]c(-c4n[nH]c5ccccc45)nc3cc21 | 1 to 100 nM
CCOC(=O)/C=C/c1n[nH]c2cc(/C=C3/C(=O)Nc4ccc(OC)cc43)ccc12 | < 5000 nM
